// IC50 lookup, one value per entry
ASSAY_TARGET: Recombinant human MMP-2 (Homo sapiens)
Construct: made in house
Sequence (P08253 110-660): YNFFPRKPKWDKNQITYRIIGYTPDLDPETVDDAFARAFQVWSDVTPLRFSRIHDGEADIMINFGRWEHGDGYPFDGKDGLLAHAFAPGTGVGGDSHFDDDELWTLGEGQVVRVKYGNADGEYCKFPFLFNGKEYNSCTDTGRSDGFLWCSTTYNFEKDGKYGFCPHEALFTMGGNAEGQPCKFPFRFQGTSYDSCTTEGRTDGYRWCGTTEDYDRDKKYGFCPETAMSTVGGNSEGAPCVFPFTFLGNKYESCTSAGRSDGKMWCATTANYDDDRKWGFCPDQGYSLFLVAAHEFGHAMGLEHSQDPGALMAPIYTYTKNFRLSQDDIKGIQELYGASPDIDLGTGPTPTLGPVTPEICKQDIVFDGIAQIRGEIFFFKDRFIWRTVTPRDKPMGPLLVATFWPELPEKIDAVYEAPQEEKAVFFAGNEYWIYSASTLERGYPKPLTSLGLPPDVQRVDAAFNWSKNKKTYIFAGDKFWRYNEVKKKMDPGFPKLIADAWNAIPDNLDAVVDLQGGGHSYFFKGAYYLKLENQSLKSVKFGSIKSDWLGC
TEST: biochemical
MEASUREMENT_CONDITIONS: fluorogenic MCA-peptide substrate, pH 7.5, room temperature; read-out: MMP-2 IC50

MOLECULE | IC50
Cc1ccc(Cl)cc1N1CCN(C(=O)C2CCN(c3ccc(S(=O)(=O)C4(C(=O)NO)CCOCC4)cc3)CC2)CC1 [Example 6] | > 10000 nM
Cc1ccc(C2CCN(c3ccc(S(=O)(=O)C4(C(=O)NO)CCN(C5CC5)CC4)cc3)CC2)cc1 [Example 272] | 5.9 nM
CCC(C)Cc1ccc(C(=O)C2CCN(c3ccc(S(=O)(=O)C4(C(=O)NO)CCN(CC)CC4)cc3)CC2)cc1 (stereo not shown) [Example 233] | 1050 nM

What the record says about CC1CC(C)CN(C(=O)C2CCN(c3ccc(S(=O)(=O)C4(C(=O)NO)CCN(C(=O)CNCC(F)(F)F)CC4)cc3)CC2)C1 (stereo not shown) [Example 113] : IC50 is 10000 nM

// recorded IC50 for COCCN1CCC(C(=O)NO)(S(=O)(=O)c2ccc(N3CCC(C(=O)c4cccc(OC)c4)CC3)c(Cl)c2)CC1 [Example 276] : 2730 nM

C=CCN1CCC(C(=O)NO)(S(=O)(=O)c2ccc(N3CCC(C(=O)c4ccc5ccccc5c4)CC3)cc2)CC1 [Example 160] yielded IC50 of 198 nM

// COc1ccc(C2CCN(c3ccc(S(=O)(=O)C4(C(=O)NO)CCN(C5CC5)CC4)cc3)CC2)cc1 [Example 260] : IC50 value = 1.2 nM

So, O=C(C1CCN(c2ccc(S(=O)(=O)C3(C(=O)NO)CCOCC3)cc2)CC1)N1CCN(c2ccccc2Cl)CC1 [Example 4] ? Its IC50 was 2900 nM

Documented IC50 of Cc1cc(C(=O)C2CCN(c3ccc(S(=O)(=O)C4(C(=O)NO)CCOCC4)cc3)CC2)ccc1OC(C)C [Example 376] : 2190 nM

###

ASSAY_TARGET: Recombinant human MMP-13 (Homo sapiens, UniProt P45452)
Construct: made in house; host or cells: baculovirus / insect cells
TEST: biochemical
MEASUREMENT_CONDITIONS: fluorogenic MCA-peptide substrate, pH 7.5, room temperature; read-out: MMP-13 IC50
pIC50: −log10 of the molar value.
Decide by pIC50: equal to or exceeding 9 means t, less means f.

MOLECULE | CATEGORY_LABEL
COCCN1CCC(C(=O)NO)(S(=O)(=O)c2ccc(N3CCC(C(=O)c4ccc(C=C(C)C)s4)CC3)cc2)CC1 [Example 122] | t
C=CCN1CCC(C(=O)NO)(S(=O)(=O)c2ccc(N3CCC(C(=O)c4ccc(N(C)CC)cc4)CC3)cc2)CC1 [Example 181] | f

Ask: Could you please find out whether O=C(C1CCN(c2ccc(S(=O)(=O)C3(C(=O)NO)CCOCC3)cc2)CC1)N1CCN(c2ccccc2Cl)CC1 [Example 4] has pIC50 that meets 9 or exceeds it?
Reply: f

Ask: Does COc1ccc(C(=O)C2CCN(c3ccc(S(=O)(=O)C4(C(=O)NO)CCNCC4)cc3)CC2)cc1 [Example 140] have a reported pIC50 of at least 9?
Reply: f

Ask: Is pIC50 at least 9? Consider COCCN1CCC(C(=O)NO)(S(=O)(=O)c2ccc(N3CCC(C(=O)c4ccc(COCC(C)C)s4)CC3)cc2)CC1 [Example 243]
Reply: t

Ask: Does pIC50 meet or surpass 9 for C=CCN1CCC(C(=O)NO)(S(=O)(=O)c2ccc(N3CCC(C(=O)c4ccc(C)c(C)c4)CC3)cc2)CC1 [Example 158] ?
Reply: f

Ask: Test whether the molecule CCN1CCC(C(=O)NO)(S(=O)(=O)c2ccc(N3CCC(C(=O)c4ccc(NC)cc4)CC3)cc2)CC1 [Example 172] records pIC50 of 9 or higher.
Reply: f
